test system: Abutilon theophrasti; test: Post-emergence herbicidal action against ABUTH; assay type: in vivo; details: 80 g a.i./ha, visual rating about 3 weeks after treatment
Overview of recorded Herbicidal action against [%] ABUTH for various molecules
Express your answer in %, writing the number without its unit.

In the examples that follow, each entry is paired with its recorded Herbicidal action against [%] ABUTH.
Input: Sample CSCCOC(=O)C1C=CC(NC(=O)C2(C3CC3)CC(c3cc(F)cc(F)c3)=NO2)C1 (stereo not shown) [Example I-28] — what was its Herbicidal action against [%] ABUTH?
Output: 90

Input: Could you do the same for CSCCOC(=O)C1C=CC(NC(=O)C2(C)CC(c3cccc(C#N)c3)=NO2)C1 (stereo not shown) [Example I-40] , please?
Output: 80

Input: Could you do the same for CSCCOC(=O)C1C=CC(NC(=O)C2(C)CC(c3cc(Cl)cc(C#N)c3)=NO2)C1 (mixture of isomers) [Example I-49] , please?
Output: 80

Input: Could you do the same for COC1(C(=O)NC2C=CC(C(=O)OCCSC)C2)CC(c2cccc(F)c2)=NO1 (mixture of isomers) [Example I-36] , please?
Output: 80

New cases:
Input: Sample C=CC1(C(=O)NC2C=CC(C(=O)OCCSC)C2)CC(c2cc(F)cc(F)c2)=NO1 (stereo not shown) [Example I-18] — what was its Herbicidal action against [%] ABUTH?
Output: 90

Input: Could you do the same for CSCCOC(=O)C1C=CC(NC(=O)C2(C(F)(F)F)CC(c3cc(F)cc(F)c3)=NO2)C1 (stereo not shown) [Example I-17] , please?
Output: 80

Input: Could you do the same for CSCCOC(=O)C1C=CC(NC(=O)C2(C(F)(F)F)CC(c3cccc(C#N)c3)=NO2)C1 (mixture of isomers) [Example I-44] , please?
Output: 80

----------
test system: Lolium rigidum; assay: Post-emergence herbicidal action against LOLRI; assay type: in vivo; details: 20 g a.i./ha, visual rating about 3 weeks after treatment
measurement-type: Herbicidal action against [%] LOLRI (%)
Express your answer in %, writing the number without its unit.

Input: Sample COC1(C(=O)NC2C=CC(C(=O)OCCSC(=O)C(C)C)C2)CC(c2cc(F)cc(F)c2)=NO1 (stereo not shown) — what was its Herbicidal action against [%] LOLRI?
Output: 90

Input: Could you do the same for CSCCOC(=O)C1C=CC(NC(=O)C2(C)CC(c3cc(F)cc(Cl)c3)=NO2)C1 (stereo not shown) , please?
Output: 90

Input: Could you do the same for CSCCOC(=O)C1C=CC(NC(=O)C2(CCl)CC(c3cc(F)cc(F)c3)=NO2)C1 (stereo not shown) [Example I-31] , please?
Output: 90

Input: Could you do the same for COC1(C(=O)NC2C=CC(C(=O)OCCSC)C2)CC(c2cc(F)cc(F)c2)=NO1 (stereo not shown) [Example I-20] , please?
Output: 90

Input: Could you do the same for CSCCOC(=O)C1C=CC(NC(=O)C2(C(F)(F)F)CC(c3cc(F)cc(F)c3)=NO2)C1 (stereo not shown) , please?
Output: 100

New cases:
Input: Sample CSCCOC(=O)C1C=CC(NC(=O)C2(C)CC(c3cc(F)cc(F)c3)=NO2)C1 (stereo not shown) — what was its Herbicidal action against [%] LOLRI?
Output: 100

Input: Could you do the same for C=CC1(C(=O)NC2C=CC(C(=O)OCCSC)C2)CC(c2cc(F)cc(C#N)c2)=NO1 (stereo not shown) , please?
Output: 90

Input: Could you do the same for COC1(C(=O)NC2C=CC(C(=O)OCCSC(C)C)C2)CC(c2cc(F)cc(F)c2)=NO1 (stereo not shown) , please?
Output: 90

Input: Could you do the same for CC(=O)CCSCCOC(=O)C1C=CC(NC(=O)C2(C)CC(c3cc(F)cc(F)c3)=NO2)C1 (stereo not shown) , please?
Output: 80

Input: Could you do the same for CC1(C(=O)NC2C=CC(C(=O)OCCSC(F)(F)F)C2)CC(c2cc(F)cc(F)c2)=NO1 (stereo not shown) , please?
Output: 80

Input: Could you do the same for C=CC1(C(=O)NC2C=CC(C(=O)OCCSC)C2)CC(c2cccc(F)c2)=NO1 (stereo not shown) , please?
Output: 90
